Target: HCV polymerase (Hepatitis C virus genotype 1b, UniProt P26663)
Construct: a region encoding NS5B (591 amino acids; J Virol 1991 Mar, 65(3), 1105-13) was amplified by PCR; 6 His (N); made in house; host or cells: Escherichia coli
Sequence (P26663 2420-3010): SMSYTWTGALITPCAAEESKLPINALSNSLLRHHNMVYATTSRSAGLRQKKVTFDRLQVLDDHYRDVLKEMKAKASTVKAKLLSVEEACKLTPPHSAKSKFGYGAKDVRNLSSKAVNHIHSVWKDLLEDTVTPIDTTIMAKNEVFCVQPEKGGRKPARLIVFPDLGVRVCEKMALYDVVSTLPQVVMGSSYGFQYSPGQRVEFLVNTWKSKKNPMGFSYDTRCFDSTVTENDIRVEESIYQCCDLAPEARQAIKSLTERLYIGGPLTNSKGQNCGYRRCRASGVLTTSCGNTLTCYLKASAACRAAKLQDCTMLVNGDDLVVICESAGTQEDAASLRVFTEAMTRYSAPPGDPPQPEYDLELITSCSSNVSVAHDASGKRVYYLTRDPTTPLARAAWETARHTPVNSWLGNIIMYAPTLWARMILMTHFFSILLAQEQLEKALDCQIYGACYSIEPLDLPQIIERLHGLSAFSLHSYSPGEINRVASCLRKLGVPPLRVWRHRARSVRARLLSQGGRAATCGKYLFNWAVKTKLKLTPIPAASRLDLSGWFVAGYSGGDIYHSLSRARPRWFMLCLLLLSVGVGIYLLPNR
Assay: biochemical
Conditions: read-out: HCV polymerase inhibitory activity IC50
Where a name gives a salt, the structure may show the parent alone.
Rule for this label: fulfilled means IC50 is less than 30 nM; not fulfilled means IC50 is at least 30 nM.

> print(dat)
                                    molecule    label.class
 1  O=C(O)c1ccc2c(c1)nc(-c1ccc(OC[C@@H]3CCCN3C(=O)c3ccccc3)cc1)n2C1CCCCC1  not fulfilled
 2  O=C(O)c1ccc2c(c1)nc(-c1ccc(Oc3ccccc3O)cc1)n2C1CCCCC1  not fulfilled
 3  O=C(O)c1ccc2c(c1)nc(-c1ccc(OCc3cc(N4CCNC4=O)ccc3-c3ccc(Cl)cc3)cc1F)n2C1CCCCC1 [Example 424, hydrochloride]      fulfilled
 4  O=C(O)c1ccc2c(c1)nc(-c1ccc(OCc3cc(C(=O)N4CCCCC4)ccc3-c3ccc(Cl)cc3)cc1F)n2C1CCCCC1      fulfilled
 5  O=C(O)c1ccc(COc2ccc(-c3nc4cc(C(=O)O)ccc4n3C3CCCC3)cc2)cc1  not fulfilled
 6  O=C(O)c1ccc2c(c1)nc(-c1ccc(OCc3cc(NC(=O)N4CCOCC4)ccc3-c3ccc(Cl)cc3)cc1F)n2C1CCCCC1 [Example 392, hydrochloride]      fulfilled
 7  CC(C)N(C)C(=O)c1ccc(-c2ccc(Cl)cc2)c(COc2ccc(-c3nc4cc(C(=O)O)ccc4n3C3CCCCC3)cc2)c1 [Example 331, hydrochloride]      fulfilled
 8  O=C(O)c1ccc2c(c1)nc(-c1ccc(OCc3cc(Cl)ccc3-c3ccc(CO)cc3)cc1)n2C1CCCCC1  not fulfilled
 9  O=C(O)CNC(=O)c1ccc(-c2ccc(Cl)cc2)c(COc2ccc(-c3nc4cc(C(=O)O)ccc4n3C3CCCCC3)c(F)c2)c1      fulfilled
10  COC1CCN(C(=O)c2ccc(-c3ccc(Cl)cc3)c(COc3ccc(-c4nc5cc(C(=O)O)ccc5n4C4CCCCC4)cc3)c2)CC1 [Example 333, hydrochloride]      fulfilled
11  C[S+]([O-])c1ccc(-c2ccc(Cl)cc2)c(COc2ccc(-c3nc4cc(C(=O)O)ccc4n3C3CCCCC3)cc2)c1 (stereo not drawn)      fulfilled
12  O=C(O)c1ccc2c(c1)nc(-c1ccc(Oc3cccc(-c4cccnc4)c3)cc1)n2C1CCCCC1  not fulfilled
13  O=C(O)c1ccc2c(c1)nc(-c1ccc(OCc3ccccc3Cl)cc1)n2C1CCCC1  not fulfilled
14  CCCNC(=O)c1ccc(-c2ccc(Cl)cc2)c(COc2ccc(-c3nc4cc(C(=O)O)ccc4n3C3CCCCC3)c(F)c2)c1 [Example 389, hydrochloride]      fulfilled
15  Cc1nc(COc2ccc(-c3nc4cc(C(=O)O)ccc4n3C3CCCCC3)cc2)c(-c2ccc(Cl)cc2)o1  not fulfilled
16  CC(C)NC(=O)c1ccc(-c2ccc(Cl)cc2)c(COc2ccc(-c3nc4cc(-c5noc(=O)[nH]5)ccc4n3C3CCCCC3)c(F)c2)c1 [Example 436, hydrochloride]      fulfilled
17  COc1ccc(-c2ccc(Cl)cc2)c(COc2ccc(-c3nc4cc(C(=O)O)ccc4n3C3CCSCC3)c(F)c2)c1      fulfilled
18  COCc1ccc(-c2ccc(Cl)cc2COc2ccc(-c3nc4cc(C(=O)O)ccc4n3C3CCCCC3)cc2)cc1  not fulfilled
19  O=C(O)c1ccc2c(c1)nc(-c1ccc(OCc3ccccc3-c3ccc(C(F)(F)F)cc3)cc1Cl)n2C1CCCCC1  not fulfilled
20  CC(=O)N(c1ccc(-c2ccc(Cl)cc2)c(COc2ccc(-c3nc4cc(C(=O)O)ccc4n3C3CCCCC3)c(F)c2)c1)C(C)C [Example 469, hydrochloride]      fulfilled
21  O=C(O)c1ccc2c(c1)nc(-c1ccc(OCc3cc(Cl)ccc3-c3ccncc3)cc1)n2C1CCCCC1 [Example 315, hydrochloride]      fulfilled
22  CC(C)=CCOc1ccccc1Oc1ccc(-c2nc3cc(C(=O)O)ccc3n2C2CCCCC2)cc1  not fulfilled
23  O=C(O)c1ccc2c(c1)nc(-c1ccc(Oc3ccccc3-c3ccccc3)cc1)n2C1CCCCC1  not fulfilled
24  COc1ccc(Br)c(COc2ccc(-c3nc4cc(C(=O)O)ccc4n3C3CCCCC3)cc2)c1  not fulfilled
25  O=C(O)c1ccc2c(c1)nc(-c1ccc(OCc3cc(Cl)cc(Cl)c3)cc1)n2C1CCCCC1  not fulfilled
26  Cc1nc(-c2ccc(Cl)cc2)c(COc2ccc(-c3nc4cc(C(=O)O)ccc4n3C3CCCCC3)cc2)s1  not fulfilled
